- TEST_DESCRIPTION: Selectivity for trypsin over uPA by chromogenic assay
READOUT_TYPE: Ratio IC50
One number for each entry.

| COMPOUND | Ratio IC50 |
| --- | --- |
| CS(=O)(=O)c1ccc(OP(=O)(Oc2ccc(S(C)(=O)=O)cc2)C(NC(=O)OCc2ccccc2)c2ccc(NC(=N)N)cc2)cc1 (stereo not given) | 434 |

Give Ratio IC50 for all compounds that follow.
1. CC(C)c1ccc(OP(=O)(Oc2ccc(C(C)C)cc2)C(NC(=O)OCc2ccccc2)c2ccc(NC(=N)N)cc2)cc1 (stereo not given)
2. CCc1ccc(OP(=O)(Oc2ccc(CC)cc2)C(NC(=O)OCc2ccccc2)c2ccc(NC(=N)N)cc2)cc1 (stereo not given)
3. CC(C)(C)c1ccc(OP(=O)(Oc2ccc(C(C)(C)C)cc2)C(NC(=O)OCc2ccccc2)c2ccc(NC(=N)N)cc2)cc1 (stereo not given)
4. CSc1ccc(OP(=O)(Oc2ccc(SC)cc2)C(NC(=O)OCc2ccccc2)c2ccc(NC(=N)N)cc2)cc1 (stereo not given)

A:
1: 0.29; 2: 0.002; 3: 0.9; 4: 0.33
